Ref: the nanobody polyreactivity screen of Harvey et al. (2022)

test: yeast display, Sf9 membrane polyspecificity reagent, FACS + sequencing; frameworks hold sequencing errors
measured_attribute: polyreactivity (PSR sort gate)

INSERT INTO assay_data (macromolecule_sequence, measured_attribute, result) VALUES
  ('QVQLVESGGGLVQAGGSLRLSCAASGRTFGPYAMGWYRQAPGKERELVAAISRSGGRTYYADSVKGRFTISRDNAKNTVYLQMNSLKPEDTAVYYCAARYYSEPNAYYYWGQGTQVTVSS', 'polyreactivity (PSR sort gate)', 'high polyreactivity'),
  ('QVQLVESGVGLVQAGGSLRLSCAASGRTFDLYAMGWYRQAPGKERELVAAITKGGGSTYYADSVKGRFTISRDNAKNTVYLQMNSLKPEDTAVYYCAARKYKRIYRISSGIGYYWGQGTQVTVSS', 'polyreactivity (PSR sort gate)', 'high polyreactivity');
